- SYSTEM NAME: human CB2R (Homo sapiens, UniProt P34972)
- Sequence (P34972 whole entry): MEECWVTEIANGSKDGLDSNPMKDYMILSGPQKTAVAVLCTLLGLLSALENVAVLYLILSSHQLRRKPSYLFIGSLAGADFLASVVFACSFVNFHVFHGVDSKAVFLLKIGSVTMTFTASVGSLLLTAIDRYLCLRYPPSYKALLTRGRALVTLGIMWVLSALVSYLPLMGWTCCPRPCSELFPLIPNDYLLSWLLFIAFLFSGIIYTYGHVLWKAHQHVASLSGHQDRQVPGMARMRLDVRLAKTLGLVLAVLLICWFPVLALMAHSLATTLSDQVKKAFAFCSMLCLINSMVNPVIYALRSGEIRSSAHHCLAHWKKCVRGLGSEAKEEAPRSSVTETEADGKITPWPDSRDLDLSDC
pKi: −log10 of the molar value.
OBSERVATION TYPE: pKi

[
  {
    "COMPOUND": "Cn1c(C(C)(C)C)cc(=NC(=O)c2cc(C(F)(F)F)ccc2OCC(C)(C)O)n1CC1CCC1 [RNB-61]",
    "OBSERVATION TYPE": "pKi",
    "MEASUREMENT": 9.24
  }
]

----------
- MEASUREMENT NOTES: Microsomal clearance
- Assay type: in vitro ADME
- SETTINGS: human, human microsomes; Table 1

[
  {
    "CPD SMILES": "N#Cc1cc(NC(=O)CCc2nc(-c3ccc(F)cc3Cl)no2)cnc1CC(F)(F)F",
    "RELATION QUALIFIER": "<",
    "microsomal CLint, µL/min/mg": 10
  },
  {
    "CPD SMILES": "CC(C)(Oc1ccc(C(F)(F)F)cn1)C(=O)Cc1cc(C(C)(C)C)no1",
    "RELATION QUALIFIER": "=",
    "microsomal CLint, µL/min/mg": 15
  },
  {
    "CPD SMILES": "COCCOCCc1cc(NC(=O)C(C)(C)S(=O)(=O)C2CCOCC2)on1",
    "RELATION QUALIFIER": "<",
    "microsomal CLint, µL/min/mg": 10
  },
  {
    "CPD SMILES": "CC1(C)C(C(=O)c2cn(CCN3CCOCC3)c3ccccc23)C1(C)C",
    "RELATION QUALIFIER": "=",
    "microsomal CLint, µL/min/mg": 420
  },
  {
    "CPD SMILES": "Cn1c(C(C)(C)C)cc(=NC(=O)c2cc(C(F)(F)F)ccc2OCC(C)(C)O)n1CC1CCC1",
    "RELATION QUALIFIER": "≤",
    "microsomal CLint, µL/min/mg": 10
  }
]

Reference source: paper PMC11320734
